- Tested on: L1210 leukemia ip in BDF1 mice, survival T/C
- method-description: NCI In Vivo Anticancer Drug Screen. Data for tumor model L1210 Leukemia (intraperitoneal) in B6D2F1 (BDF1) mice
- measurement-parameters: endpoint: mean survival time; dose: 200.0 mg/kg/injection; schedule: Q04DX002 (ip); vehicle: saline with Tween-80; higher = longer survival
Inconclusive results and toxic doses are left out.
assay-readout: T/C

O=[N+]([O-])c1ccc(O)c(/C=N/N2CCCCC2)c1 ... 97 % of control
CC1CC(NC(=S)NC(=O)c2ccccc2Cl)CC(C)(C)C1 (centres undefined) ... 113 % of control
CC(C)(C)N(Cl)C#N ... 97 % of control
CCC1=C/C(=C\c2ccc3c(c2)OCO3)C(=O)S1 ... 89 % of control
CC(C(=O)c1ccccc1)c1ccccc1 (centres undefined) ... 107 % of control
CN=C(NC)NN ... 95 % of control

Look up T/C for the entries below, preserving their order.
1. OCCNc1nn2ccnc2c2ccccc12
2. CN(C)N=Nc1ccc(S(C)(=O)=O)cc1

a:
["92 % of control", "116 % of control"]

q: Give its T/C value. Item: COc1ccc(Cl)cc1NC(=O)Nc1cc(C)ccc1N=Nc1ccc(C)cc1
a: 92 % of control

###

- System: L1210 leukemia ip in BDF1 mice, survival T/C
- method-description: NCI In Vivo Anticancer Drug Screen. Data for tumor model L1210 Leukemia (intraperitoneal) in B6D2F1 (BDF1) mice
- measurement-parameters: endpoint: mean survival time; dose: 50.0 mg/kg/injection; schedule: Q01DX001 (ip); vehicle: saline; higher = longer survival
Toxic doses and inconclusive results are not listed.
For each of the compounds below, state its T/C.

Below, each entry is followed by its recorded T/C result.
CCOC(=O)CNC(=O)Cn1ccc(=O)[nH]c1=O ... 96 % of control
Cc1ccc(S(=O)(=O)OCCN(CCO)c2cn(C(c3ccccc3)(c3ccccc3)c3ccccc3)c(=O)n(C(c3ccccc3)(c3ccccc3)c3ccccc3)c2=O)cc1 ... 93 % of control
O=c1[nH]c2c(cnn2-c2ccccc2)c(=O)n1O ... 97 % of control
O=C1NC(=O)C(c2cccc(F)c2)N1 (centres undefined) ... 97 % of control

Look up T/C for the entries below, preserving their order.
1. Oc1c(CN2CCCC2)cc(Nc2nccc(/C=C/c3ccc(Cl)cc3)n2)cc1CN1CCCC1
2. O=c1cc[nH]c2ccc(Cl)cc12

a:
1: 96 % of control; 2: 117 % of control

Look up T/C for the entries below, preserving their order.
1. C/C=C/C[n+]1c(C)ccc2ccccc21
2. Sc1ccccc1-n1c(-c2ccccc2)ccc1-c1ccccc1
3. O=S(Cc1ccccc1)Cc1ccccc1

a:
93 % of control
96 % of control
110 % of control

###

- Tested on: L1210 leukemia ip in BDF1 mice, survival T/C
- method-description: NCI In Vivo Anticancer Drug Screen. Data for tumor model L1210 Leukemia (intraperitoneal) in B6D2F1 (BDF1) mice
- measurement-parameters: endpoint: mean survival time; dose: 100.0 mg/kg/injection; schedule: Q04DX003 (ip); vehicle: saline; higher = longer survival
Inconclusive results and toxic doses are left out.
assay-readout: T/C

Below, each entry is followed by its recorded T/C result.
Nc1nc2c(c(-c3ccccc3)n1)CN(c1ccc(Br)cc1)C2=O ... 90 % of control
Cc1cc(=O)[nH]c2c1CCC2 ... 106 % of control
COC(=O)C1=C(C(=O)OC)C2OC1C(COC(C)=O)=C2COC(C)=O ... 93 % of control
O=C(CCN1CC1)Nc1ccccc1 ... 91 % of control
O=S1(=O)CCOCC1 ... 97 % of control

Look up T/C for the entries below, preserving their order.
1. Cc1cccc(OCCOC(=O)Nc2cccc(C(F)(F)F)c2)c1
2. O=C(Nc1cc(C(F)(F)F)ccc1Cl)c1ccc(Cl)cc1
3. CN(C)C(C)(C)CNc1ccc(C(=O)O)cc1

a:
1: 101 % of control; 2: 103 % of control; 3: 98 % of control

Look up T/C for the entries below, preserving their order.
1. O=C(O)CCCN1C/C(=C\c2ccc(Cl)cc2)C(=O)C1=O
2. NC(N)=Nc1ccc(C(=O)Nc2ccc([N+](=O)[O-])cc2)cc1
3. CCCCCCCCCCCCCCCC(=O)N(CCCN)CCCN(CCCN)C(=O)CCCCCCCCCCCCCCC
4. CC(NC(=O)OCc1ccccc1)C(=O)ON1C(=O)CCC1=O (centres undefined)
5. O=C(O)CN(CC(=O)O)c1ccc(/C=C/c2ccc(N(CC(=O)O)CC(=O)O)c(S(=O)(=O)O)c2)cc1S(=O)(=O)O
6. c1ccc2c(c1)CC1CCCCN1C2 (centres undefined)

a:
98 % of control
95 % of control
98 % of control
96 % of control
112 % of control
88 % of control

Look up T/C for the entries below, preserving their order.
1. O=C(COc1cc2ccccc2cc1C(=O)O)NCc1ccc(Cl)cc1
2. Oc1c(CN2CCCC2)cc(Nc2nccc(/C=C/c3ccc(Cl)cc3)n2)cc1CN1CCCC1
3. N[C@@H](Cc1ccc(O)c(O)c1)C(=O)O
4. O=C1C2C3CC4C2C(=O)C2C1C3C42 (centres undefined)
5. O=C(Nc1cccc(C(F)(F)F)c1)Nc1c(Oc2ccc(Cl)c(Cl)c2)ccc(Cl)c1S(=O)(=O)O
6. CCOC(=O)N=C=S
7. COc1ccc(CC(=O)NNC(=O)C2(C(C)C)OC3(O)CCCCN3C2=O)cc1OC (centres undefined)

a:
["101 % of control", "90 % of control", "110 % of control", "94 % of control", "103 % of control", "95 % of control", "106 % of control"]

Look up T/C for the entries below, preserving their order.
1. O=C(C1C2C=CC(C2)C1C(=O)N1CCCCC1)N1CCCCC1 (centres undefined)
2. O=C(CCl)NCc1ccc(Cl)c(C(=O)O)c1
3. COC(=O)C(N)CSC (centres undefined)
4. O=C(O)C(O)C(O)C(O)C(O)CO (centres undefined)
5. O=[N+]([O-])c1ccc(-c2ncc3cnccn23)cc1
6. CC(=O)C(C)(NCc1ccccc1)c1ccccc1 (centres undefined)

a:
1: 98 % of control; 2: 98 % of control; 3: 101 % of control; 4: 106 % of control; 5: 100 % of control; 6: 97 % of control

Look up T/C for the entries below, preserving their order.
1. Cc1nc(SCc2ccc(Cl)cc2)[nH]c(=O)c1CC(C)O (centres undefined)
2. Cc1ccc(C)c(S(=O)(=O)OCC#CCOS(=O)(=O)c2cc(C)ccc2C)c1
3. Cc1c(O)c2cccc(-c3ccccc3)c2oc1=O
4. C=CC(=O)N(C)OC
5. CCCCN(CCCC)C(=O)CCC
6. CC(C)C(=O)NN
7. CC(C)(C)CC(C)(C)c1ccc(OCCOc2ccc(C(N)=O)cc2[N+](=O)[O-])cc1

a:
97 % of control
97 % of control
87 % of control
100 % of control
102 % of control
98 % of control
94 % of control

Look up T/C for the entries below, preserving their order.
1. CC[S+](CC)CC
2. CCOC(=O)C1CC2(Cl)C(Cl)=C(Cl)C1(Cl)C2(Cl)Cl (centres undefined)
3. COc1ccc(/C=C2\CCC3C(=O)CCCC3(C)C2=O)cc1 (centres undefined)
4. CC(O)C(=O)OCCOc1ccc(Cl)cc1Cl (centres undefined)

a:
["95 % of control", "94 % of control", "100 % of control", "100 % of control"]

Look up T/C for the entries below, preserving their order.
1. C[N+](C)(C)CC[N+](C)(C)C
2. O=c1cccc[nH]1
3. O=C1CC2c3ccccc3C1C1C(=O)OC(=O)C21 (centres undefined)
4. O=S(=O)(SSS(=O)(=O)c1ccc(Cl)cc1)c1ccc(Cl)cc1
5. CNC(C)Cc1ccccc1OC (centres undefined)
6. O=C1OC2C(I)C3CCC2C1C3 (centres undefined)

a:
1: 100 % of control; 2: 91 % of control; 3: 100 % of control; 4: 90 % of control; 5: 92 % of control; 6: 102 % of control

###

- Test system: L1210 leukemia ip in BDF1 mice, survival T/C
- method-description: NCI In Vivo Anticancer Drug Screen. Data for tumor model L1210 Leukemia (intraperitoneal) in B6D2F1 (BDF1) mice
- measurement-parameters: endpoint: mean survival time; dose: 6.25 mg/kg/injection; schedule: Q01DX009 (ip); vehicle: saline; higher = longer survival
Toxic doses and inconclusive results are not listed.
assay-readout: T/C

Look up T/C for the entries below, preserving their order.
1. C/C(=N/N(C)C)c1ccc(F)cc1
2. CCCCCCCCC(=O)NCc1ccc(O)c(OC)c1
3. CC1CC(C)(C)[N+]2=C(CCCC2)O1 (stereo not given)
4. O=C(Nc1ccc(Cl)c(Cl)c1)Nc1c(Oc2ccc(Cl)c(Cl)c2)ccc(Cl)c1S(=O)(=O)O
5. CCNC(Cc1ccccc1)C1CCCO1 (stereo not given)

a:
94 % of control
90 % of control
96 % of control
94 % of control
108 % of control
